Cited source: ChEMBL document CHEMBL3244368

# Organism: Rattus norvegicus
# procedure-text: Vasopressor activity in phenoxybenzamine-treated rat
# Type: functional
Starred links: 1 amine or outer side, 2 acyl side, 3 side chain; linkers in the order of their positions; H or OH if unused. Positions of bridges follow the written chain, without caps; N, C: chain ends. Non-standard residues stand in square brackets, D forms with d. Residues, ends and D or L forms follow the SMILES beside them. X1 = O=C([C@H](CC1=CCC=CC1)N[*:1])[*:2]
measured-property: Activity (U/mg)
Report only the number, with the unit U/mg understood.

Enquiry: Please report the recorded Activity for N=C(N)NCCC[C@H](NC(=O)[C@@H]1CCCN1C(=O)[C@@H]1CSSC[C@H](N)C(=O)N[C@@H](Cc2ccc(O)cc2)C(=O)N[C@@H](Cc2ccccc2)C(=O)N[C@@H](CCC(N)=O)C(=O)N[C@@H](CC(N)=O)C(=O)N1)C(=O)NCC(N)=O [VASOPRESSIN] .
Return: 380

Enquiry: Please report the recorded Activity for NCCCC[C@H](NC(=O)[C@@H]1CCCN1C(=O)[C@@H]1CSSC[C@H](N)C(=O)N[C@@H](Cc2ccc(O)cc2)C(=O)N[C@@H](CC2=CCC=CC2)C(=O)N[C@@H](CCC(N)=O)C(=O)N[C@@H](CC(N)=O)C(=O)N1)C(=O)NCC(N)=O (H-CY[X1]QNCPKG-NH2; disulfide 1-6) .
Return: 129

Enquiry: Please report the recorded Activity for CC[C@H](C)[C@@H]1NC(=O)[C@H](Cc2ccc(O)cc2)NC(=O)[C@@H](N)CSSC[C@@H](C(=O)N2CCC[C@H]2C(=O)N[C@@H](CCCNC(=N)N)C(=O)NCC(N)=O)NC(=O)[C@H](CC(N)=O)NC(=O)[C@H](CCC(N)=O)NC1=O [ARGIPRESTOCIN] (H-CYIQNCPRG-NH2; disulfide 1-6) .
Return: 243

----------
# procedure-text: Stability of the compound in 0.2 M potassium phosphate buffer at pH 7.7 assessed as hydrolysis by measuring Gly level in presence of alpha-amylase preparation
# Assay type: ADME
Starred links: 1 amine or outer side, 2 acyl side, 3 side chain; linkers in the order of their positions; H or OH if unused. Non-standard residues stand in square brackets, D forms with d. Residues, ends and D or L forms follow the SMILES beside them. *: point of attachment. X1 = O=C([C@H](CC1=CCC=CC1)N[*:1])[*:2]; Tos = Cc1ccc(S(=O)(=O)*)cc1; Cbz = O=C(OCc1ccccc1)*; Bn = c1ccc(C*)cc1
measured-property: Drug degradation (mol%)
Report only the number, with the unit mol% understood.

Enquiry: Please report the recorded Drug degradation for NCCCC[C@H](NC(=O)[C@@H]1CCCN1C(=O)[C@@H]1CSSC[C@H](N)C(=O)N[C@@H](Cc2ccc(O)cc2)C(=O)N[C@@H](Cc2ccccc2)C(=O)N[C@@H](CCC(N)=O)C(=O)N[C@@H](CC(N)=O)C(=O)N1)C(=O)NCC(N)=O [LYPRESSIN] .
Return: 73

Enquiry: Please report the recorded Drug degradation for CC[C@H](C)[C@H](NC(=O)[C@H](Cc1ccc(O)cc1)NC(=O)[C@@H](N)CS(=O)(=O)O)C(=O)N[C@@H](CCC(N)=O)C(=O)N[C@@H](CC(N)=O)C(=O)N[C@@H](CS(=O)(=O)O)C(=O)N1CCC[C@H]1C(=O)N[C@@H](CC(C)C)C(=O)NCC(N)=O .
Return: 50

Enquiry: Please report the recorded Drug degradation for CC[C@H](C)[C@@H]1NC(=O)[C@H](Cc2ccc(O)cc2)NC(=O)[C@@H](N)CSSC[C@@H](C(=O)N2CCC[C@H]2C(=O)N[C@@H](CC(C)C)C(=O)NCC(N)=O)NC(=O)[C@H](CC(N)=O)NC(=O)[C@H](CCC(N)=O)NC1=O [OXYTOCIN] .
Return: 63

Enquiry: Please report the recorded Drug degradation for Cc1ccc(S(=O)(=O)NCCCC[C@H](NC(=O)[C@@H]2CCCN2C(=O)[C@H](CSCc2ccccc2)NC(=O)[C@H](CC(N)=O)NC(=O)[C@H](CCC(N)=O)NC(=O)[C@H](CC2=CCC=CC2)NC(=O)[C@H](Cc2ccc(OCc3ccccc3)cc2)NC(=O)[C@H](CSCc2ccccc2)NC(=O)OCc2ccccc2)C(=O)NCC(N)=O)cc1 (Cbz-C(Bn)Y(Bn)[X1]QNC(Bn)PK(Tos)G-NH2) .
Return: 18
